Test: Selectivity ratio of IC50 for mouse L929 cells to IC50 for bloodstream Trypanosoma brucei 427
Format: ADME, cell-based
Settings: read-out: Ratio IC50
Measured attribute: selectivity ratio

The compound listed as COc1cc(C(=O)/C=C/c2ccc3c(c2)B(O)OC3)ccc1N shows selectivity ratio equal to > 100
